Below, each entry is listed with its recorded Dissociation rate kd.
- target: NRP1-b1b2 (b1b2 domain of neuropilin-1) (Homo sapiens, UniProt O14786)
- Construct: b1b2 domains (273-586) of neuropilin-1
- Sequence (O14786 273-586): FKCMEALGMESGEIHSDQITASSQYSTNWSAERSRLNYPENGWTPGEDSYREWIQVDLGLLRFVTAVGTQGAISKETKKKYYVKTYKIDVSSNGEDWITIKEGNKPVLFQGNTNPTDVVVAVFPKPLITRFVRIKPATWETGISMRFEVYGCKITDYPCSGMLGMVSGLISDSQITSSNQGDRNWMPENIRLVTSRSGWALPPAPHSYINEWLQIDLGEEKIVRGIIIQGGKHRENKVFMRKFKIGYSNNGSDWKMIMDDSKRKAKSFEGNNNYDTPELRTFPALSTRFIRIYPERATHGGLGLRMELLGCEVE
- method-description: SPR (Biacore2000) binding to b1b2 domain of neuropilin-1
- particulars: NRP1-b1b2, SPR
experimental-endpoint: Dissociation rate kd

{"substance": "Fc-15F22: Human IgG1 Fc with (GGGGS)3-F22 (SEQ ID NO: 9) fused to its C-terminus (GGGGSGGGGSGGGGSREAPGAPRSPEPQDQKKPRNRR)", "experimental-endpoint": "Dissociation rate kd", "reported-value": "5.34 ± 0.24 × 10^−2 s^−1"}
{"substance": "Fc-15F22p: Human IgG1 Fc with TPP 15F22p (SEQ ID NO: 10) fused to its C-terminus (GGGGSGGGGSGGGGSREAPGAPRSPEPQDQKKPRPRR)", "experimental-endpoint": "Dissociation rate kd", "reported-value": "1.38 ± 0.12 × 10^−3 s^−1"}
{"substance": "Fc-4F22: Human IgG1 Fc with TPP 4F22 (SEQ ID NO: 8) fused to its C-terminus (GAGAREAPGAPRSPEPQDQKKPRNRR)", "experimental-endpoint": "Dissociation rate kd", "reported-value": "2.25 ± 0.18 × 10^−3 s^−1"}
{"substance": "Fc-15A22: Human IgG1 Fc with TPP 15A22 (SEQ ID NO: 6) fused to its C-terminus (GGGGSGGGGSGGGGSHTPGNSNKWKHLQENKKGRNRR)", "experimental-endpoint": "Dissociation rate kd", "reported-value": "2.95 ± 0.04 × 10^−2 s^−1"}
{"substance": "Fc-4A22: Human IgG1 Fc with TPP 4A22 (SEQ ID NO: 5) fused to its C-terminus (GAGAHTPGNSNKWKHLQENKKGRNRR)", "experimental-endpoint": "Dissociation rate kd", "reported-value": "1.93 ± 0.05 × 10^−2 s^−1"}
